test.details: recombinant UMI read abundance after kanamycin selection (control-corrected) (log10(CPM+1)); higher = more efficient recombination; extreme values may be limits of the assay; sequences stand for … in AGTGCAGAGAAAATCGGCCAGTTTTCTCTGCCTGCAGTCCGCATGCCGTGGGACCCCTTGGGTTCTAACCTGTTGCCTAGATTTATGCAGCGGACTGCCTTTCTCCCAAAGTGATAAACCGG…AGGTTGGTTTCACT; site = the 11-nt donor
Task for the reader: assign each of the following sequences its reported recombinant UMI read abundance (log10).
Answers are plain numbers.

Record excerpt, results attached:
AACCGACCATGGACCGGTTTTCCCGGTAATCCGTATTTGAT (site AACCGGCCTAT); 0.0183
ACCCATCCATGGACCGGTTTTCCCGGTAATCCGTATTTGAC (site ACTCATCCTGT); 0
GGAAAGACATGGACCGGTTTTCCCGGTAATCCGTATTTGCC (site GGAGAGACTGG); 0.347
CAAGCGCCATGGACCGGTTTTCCCGGTAATCCGTATTTGAG (site CAAGCGCCTCT); 0.322
CTTGAAACATGGACCGGTTTTCCCGGTAATCCGTATTTGCA (site CTAGAAACTTG); 1.31
TATCGAGCATGGACCGGTTTTCCCGGTAATCCGTATTTGTC (site TATCGAGCTGA); 2.55

Provide each entry's recombinant UMI read abundance (log10) from the list below.
1. GGATGATCATGGACCGGTTTTCCCGGTAATCCGTATTTGCT (site CGATCATCTAG)
2. TCAGAGACATGGACCGGTTTTCCCGGTAATCCGTATTTGCG (site TCACAGACTCG)
3. CGCAATGCATGGACCGGTTTTCCCGGTAATCCGTATTTGTT (site CGGAATCCTAA)

output:
1: 0; 2: 0.316; 3: 0

----------
test.details: recombinant barcode read abundance after kanamycin selection (control-corrected) (log10(CPM+1)); higher = more efficient recombination; sequences stand for … in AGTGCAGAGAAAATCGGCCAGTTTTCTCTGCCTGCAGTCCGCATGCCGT…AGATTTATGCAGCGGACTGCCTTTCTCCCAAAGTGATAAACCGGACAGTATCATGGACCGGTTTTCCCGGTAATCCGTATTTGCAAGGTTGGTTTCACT; site = the 11-nt target
Dear colleague, classification is by recombinant barcode read abundance (log10), with ranges listed here: bucket A: < 0.1; bucket B: ≥ 0.1 and < 0.6; bucket C: ≥ 0.6

CTGCTAGCTTGGGTTCTAACCTGTTGCAG (site GACAGGCCTAC); bucket B
TACCTATCTTGGGTTCTAACCTGTTGCGT (site TACCTAGCTAC); bucket A

input: Which category does the recorded recombinant barcode read abundance (log10) put AGTTTCGCTTGGGTTCTAACCTGTTGCGG (site AGTTTCGCTCC) in?
output: bucket A

input: Could you do the same for ACTTTGCCTTGGGTTCTAACCTGTTGCCT (site ACCTTGCCTAG) , please?
output: bucket A

input: And for GGTTGACCTTGGGTTCTAACCTGTTGCGG (site GGTTGCCCTCC) ?
output: bucket A

input: Repeat with GAGGCTCCTTGGGTTCTAACCTGTTGCCA (site GAGGCTCCTAG)
output: bucket C

input: Now try TCACCGCCTTGGGTTCTAACCTGTTGCCT (site CCACCGCCTAG) .
output: bucket B

input: Please give the result for TCAGCCTCTTGGGTTCTAACCTGTTGCCT (site TCAGCCTCTAG) too.
output: bucket C

input: Param item: AGGTCCACTTGGGTTCTAACCTGTTGCTG (site AGGCCCACTGA)
output: bucket B

input: Likewise for GGACCTCCTTGGGTTCTAACCTGTTGCGT (site GGACCTCCTAC) ?
output: bucket C

input: Subsequent entry: CATGGGTCTTGGGTTCTAACCTGTTGCCT (site CCTGGGTCTAA)
output: bucket A

input: Here is the next sequence: TGCGTCCCTTGGGTTCTAACCTGTTGCCT (site TGGGTCCCTAG)
output: bucket B
